B1: ATGL (PNPLA2, patatin-like phospholipase domain-containing protein 2), human, full length / G0S2 (G0/G1 switch protein 2), human (parent)
chain 1: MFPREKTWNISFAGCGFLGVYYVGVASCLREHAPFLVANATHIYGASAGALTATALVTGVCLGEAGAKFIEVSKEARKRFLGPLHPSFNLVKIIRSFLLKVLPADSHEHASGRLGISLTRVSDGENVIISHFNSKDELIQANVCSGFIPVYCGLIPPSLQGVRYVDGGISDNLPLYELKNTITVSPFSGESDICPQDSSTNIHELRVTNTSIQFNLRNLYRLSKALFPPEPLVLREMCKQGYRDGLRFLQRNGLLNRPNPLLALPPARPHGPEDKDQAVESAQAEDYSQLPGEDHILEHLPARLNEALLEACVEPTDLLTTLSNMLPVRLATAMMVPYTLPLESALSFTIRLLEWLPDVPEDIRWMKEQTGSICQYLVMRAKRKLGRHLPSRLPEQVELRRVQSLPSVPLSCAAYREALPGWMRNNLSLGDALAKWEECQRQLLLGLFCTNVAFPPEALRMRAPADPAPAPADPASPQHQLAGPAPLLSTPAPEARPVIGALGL
chain 2: METVQELIPLAKEMMAQKRKGKMVKLYVLGSVLALFGVVLGLMETVCSPFTAARRLRDQEAAVAELQAALERQALQKQALQEKGKQQDTVLGGRALSNRQHAS

- Variants of: B1
- assay comment: LUMIER: Protein A-ATGL variant and firefly luciferase-partner co-expressed in HEK293T, lysates immunoprecipitated on IgG-coated plates, co-precipitated partner measured as luciferase luminescence
- test parameters: with G0S2 (G0/G1 switch protein 2), transient co-transfection, IgG-coated LUMITRAC plates, 2 h at 4 °C, three PBS washes, Bright-Glo luciferase reagent, triplicates per assay, two …, parent: 0.26, not graded, scale: log2 fold change of co-immunoprecipitated luminescence relative to wild-type ATGL within each experiment
Grouping key: screen value. Bins: bottom range = under -0.7, center range = from -0.7 up to -0.06, top range = -0.06 and over

1) chain 1 P86K | bottom range
2) chain 1 L178A | center range
3) chain 1 N39E | bottom range
4) chain 1 G16K | center range
5) chain 1 G66A | top range
6) chain 1 L62A | bottom range
7) chain 1 S158A | center range
8) chain 1 A434L | top range
9) chain 1 S87A | center range
10) chain 1 K275A | center range
11) chain 1 R329E | center range
12) chain 1 P156K | bottom range
13) chain 1 A104E | center range
14) chain 1 G189E | bottom range
15) chain 1 K92L | top range
16) chain 1 G153A | bottom range
17) chain 1 E125L | center range
18) chain 1 V127L | top range
19) chain 1 G153K | bottom range
20) chain 1 T41A | top range
21) chain 1 R351L | top range
22) chain 1 Q396A | bottom range
23) chain 1 I70A | bottom range
24) chain 1 G66L | center range
25) chain 1 F35A | center range
26) chain 1 Q140K | top range
27) chain 1 E314A | top range
28) chain 1 Q140A | top range
29) chain 1 N180L | bottom range
30) chain 1 E368A | center range
31) chain 1 R113K | top range
32) chain 1 L102K | bottom range
33) chain 1 S158E | top range
34) chain 1 P103K | center range
35) chain 1 V328A | bottom range
36) chain 1 S106K | bottom range
37) chain 1 R95K | top range
38) chain 1 Y415A | top range
39) chain 1 A453E | top range
40) chain 1 R113L | top range
41) chain 1 L62K | bottom range
42) chain 1 L159A | center range
43) chain 1 H109E | top range
44) chain 1 P258L | bottom range
45) chain 1 S87E | center range
46) chain 1 F348E | center range
47) chain 1 R163K | top range
48) chain 1 I70K | bottom range
49) chain 1 F35E | center range
50) chain 1 L261E | center range
51) chain 1 G59L | bottom range
